molecular target: T1, human adenosine A2A receptor (A2aR) (human, UniProt P29274 1-412); experiment: flow cytometry, HEK293-hA2aR cells, supernatant 1 ug/ml
T1 construct: Assays used HEK293 cells stably overexpressing human A2aR (BPS Bioscience 79381), human A2aR-expressing CHO cells, or endogenous A2aR on human PBMC; also called human A2aR; hA2aR
T1 sequence (P29274 whole entry): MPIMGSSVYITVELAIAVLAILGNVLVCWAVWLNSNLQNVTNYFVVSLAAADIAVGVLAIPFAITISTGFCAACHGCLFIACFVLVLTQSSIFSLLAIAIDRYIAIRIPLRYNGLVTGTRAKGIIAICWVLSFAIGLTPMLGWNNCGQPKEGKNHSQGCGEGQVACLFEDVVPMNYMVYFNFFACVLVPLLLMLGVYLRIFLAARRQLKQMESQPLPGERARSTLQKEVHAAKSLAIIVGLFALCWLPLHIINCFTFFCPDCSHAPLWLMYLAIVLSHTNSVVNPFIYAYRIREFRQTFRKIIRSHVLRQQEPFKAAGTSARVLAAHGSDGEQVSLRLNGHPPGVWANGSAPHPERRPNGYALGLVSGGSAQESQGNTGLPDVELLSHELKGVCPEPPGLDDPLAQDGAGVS
Please provide measured MFI for the entries that follow.
Report only the number, with the unit MFI understood.

In: Give the measured MFI of Hu3F6-H6/Hu3F6-L6 (antibody, human IgG1, V domains shown, Human IgG1 FES (L234F, L235E, P331S) and human Ig kappa constant domains) VH: EVQLVQSGAEVKKPGESLRISCKASGFAFTSYWMNWVRQMPGKGLEWIGRIDPSDSEAHYHHKFWGHATLSVDKSSSTVYLQWSSLKASDTAMYYCLRSLYGKGDYWGHGTTVTVSS VL: DIVMTQTPPSLPVNPGEPASISCRSSQSLVHRNGNTYLEWYLQKPGQSPQLLIYKVSNRFSGVPDRFSGSGSGSDFTLKISWVEAEDVGVYYCYQGSHVPLTFGGGTKVEIK .
Out: 979

In: Need MFI of Hu3F6-H6/Hu3F6-L5 (antibody, human IgG1, V domains shown, Human IgG1 FES (L234F, L235E, P331S) and human Ig kappa constant domains) VH: EVQLVQSGAEVKKPGESLRISCKASGFAFTSYWMNWVRQMPGKGLEWIGRIDPSDSEAHYHHKFWGHATLSVDKSSSTVYLQWSSLKASDTAMYYCLRSLYGKGDYWGHGTTVTVSS VL: DVVMTQTPLSLSVTPGQPASISCRSSQSLVHRNGNTYLEWYLQKPGQSPQLLIYKVSNRFSGVPDRFSGSGSGTDFTLKISRVEAEDVGVYYCYQGSHVPLTFGGGTKVEIK , thanks.
Out: 1980

In: Field request: MFI | item: Hu3F6-H1/Hu3F6-L4 (antibody, human IgG1, V domains shown, Human IgG1 FES (L234F, L235E, P331S) and human Ig kappa constant domains) VH: QVQLVQSGAEVKKPGASVKVSCKASGFAFTSYWMNWVRQAPGQGLEWMGRIDPSDSEAHYHHKFWGRVTMTRDTSTSTVYMELSSLRSEDTAVYYCLRSLYGKGDYWGHGTTVTVSS VL: DIVMTQTPLSLSVTPGQPASISCRSSQSLVHRNGNTYLEWYLQKPGQSPQLLIYKVSNRFSGVPDRFSGSGSGTDFTLKISRVEAEDVGVYYCYQGSHVPLTFGGGTKVEIK
Out: 1320
